target: BCL6-SMRT (NCOR2) corepressor protein-protein interaction (Homo sapiens); construct: DNA encoding full length BCL6 and SMRT; expressed in transfected cells; host or cells: HEK293T; assay: NanoBRET cellular assay (HEK293T); assay type: cell-based; settings: supplement; read-out: BCL6 NanoBRET IC50 Geometric Mean
MEASURE: pIC50
By convention, pIC50 is the negative base-10 log of a molar concentration.

Some solved cases for reference:
QUERY SMILES: Cn1c(=O)c2c(c3cc(Nc4ccnc(F)c4Cl)ccc31)N[C@@H](C1CC1)C(F)(F)CO2
pIC50: 7.66
//
QUERY SMILES: Cn1c(=O)c2c(c3cc(Nc4ccnc(Cl)c4F)ccc31)N[C@@H](C1CC1)C(F)(F)CO2
pIC50: 6.97
//
QUERY SMILES: Cn1c(=O)c2c(c3cc(Nc4nc(N5CCC5)ncc4Cl)ccc31)N[C@@H](C1CC1)C(F)(F)CO2
pIC50: 6.83
//
QUERY SMILES: Cn1c(=O)c2c(c3cc(Nc4ccnc(Cl)c4C#N)ccc31)N[C@@H](C1CC1)C(F)(F)CO2
pIC50: 7.93
//
QUERY SMILES: C[C@@H]1C[C@H](O)CN(c2ncc(Cl)c(Nc3ccc4c(c3)c3c(c(=O)n4C)OCC(F)(F)[C@H](C4CC4)N3)n2)C1
pIC50: 7.59
//
QUERY SMILES: Cc1nccc(Nc2ccc3c(c2)c2c(c(=O)n3C)OCC(F)(F)[C@H](C3CC3)N2)c1Cl
pIC50: 6.89
//
QUERY SMILES: Cn1c(=O)c2c(c3cc(Nc4nc(N5CC(C#N)C5)ncc4Cl)ccc31)N[C@@H](C1CC1)C(F)(F)CO2
pIC50: 7.26

// next entry
Qu. Would you mind telling me what pIC50 value was observed for `Cn1c(=O)c2c(c3cc(Nc4ccnc(Cl)c4Cl)ccc31)N[C@@H](C1CC1)C(F)(F)CO2` ?
Ans. 7.16
